Parameter fraction ligated: see the listing below.
Tested on: F1*sub RNA substrate (template-directed ligation)
method.description: fraction ligated after 30 min (ligated reads / total reads); higher = more ligase activity; sequences stand for … in GAGACCGCAACTGAAAAGTTGT…AGTTCTGCACGTAGAAGCAAAAGGC
study.conditions: 42 °C
Please reply with the number alone, leaving off any unit.

In: Provide the reported fraction ligated (system: F1*sub RNA substrate (template-directed ligation)) for ATCACTTGTCGTAAGCACTTTGATGGGTTGA [3d225]
Out: 0.393

In: Name the value of fraction ligated reported for TATCACTGCGTAAGACACTTTGGATGGGTTA [3d1341] when tested on F1*sub RNA substrate (template-directed ligation).
Out: 0.803

In: State fraction ligated on F1*sub RNA substrate (template-directed ligation). Entry: TACACTTTCGTAAGCACTTTGGATGGGTTGA [3d590]
Out: 0.0355

In: Recall the reported fraction ligated of ATCACTGTCGTAAGACACTTTGGATGGGTTGA [2d6] on F1*sub RNA substrate (template-directed ligation) and write it down.
Out: 0.739

====

Test system: F1*sub RNA substrate (template-directed ligation)
method.description: fraction ligated after 30 min (ligated reads / total reads); higher = more ligase activity; sequences stand for … in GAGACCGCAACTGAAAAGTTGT…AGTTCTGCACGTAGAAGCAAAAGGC
study.conditions: 42 °C
Parameter threshold = 0.6. Response is Y when fraction ligated meets or exceeds it, else N.

// known answers, use as guide
[[record]]
sequence_string = "TATCACTGTCGAAGACCTTTGGATGGGTTGA [3d1376]"
assigned_class = "Y"

[[record]]
sequence_string = "TATCTTGTCGTAAGACACTTTGGATGGGTTGA [2d69]"
assigned_class = "Y"

[[record]]
sequence_string = "TATCACTTGTGTAAGACACTTTGATGGGTTA [3d1797]"
assigned_class = "N"

[[record]]
sequence_string = "TATCATGTCGTAAGACACTTTGGAGGGTTGA [3d1136]"
assigned_class = "N"


In: Would you say TATCTTGTCGTAAGACACTTTGGATGGGTTG [3d757] shows fraction ligated at minimum 0.6?
Out: Y

====

System: F1*sub RNA substrate (template-directed ligation)
method.description: fraction ligated after 30 min (ligated reads / total reads); higher = more ligase activity; sequences stand for … in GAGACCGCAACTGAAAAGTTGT…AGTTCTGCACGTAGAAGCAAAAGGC
study.conditions: 42 °C
metric.name: fraction ligated
Just the number, please, no unit attached.

[[record]]
sequence_string = "TATCACTTGTCGTAAGCACTTTGGTGGGTTGA [2d249]"
target = "F1*sub RNA substrate (template-directed ligation)"
measured = 0.14

[[record]]
sequence_string = "TATCACTTGTCGAAGACACTTTGATGGGTTA [3d1968]"
target = "F1*sub RNA substrate (template-directed ligation)"
measured = 0.15

[[record]]
sequence_string = "TTCCTTGTCGTAAGCACTTTGGATGGGTTGA [3d306]"
target = "F1*sub RNA substrate (template-directed ligation)"
measured = 0.772

[[record]]
sequence_string = "TATCCTGTCGTAAGCACTTTGGATGGGTTGA [3d957]"
target = "F1*sub RNA substrate (template-directed ligation)"
measured = 0.783

[[record]]
sequence_string = "TATCACTTGTCGAAGACACTTGGAGGGTTGA [3d1960]"
target = "F1*sub RNA substrate (template-directed ligation)"
measured = 0.0758

[[record]]
sequence_string = "ATCACTTGTCTAAGACACTTTGGATGGGTTA [3d183]"
target = "F1*sub RNA substrate (template-directed ligation)"
measured = 0.656

[[record]]
sequence_string = "TACACTTGTCGTAAACATTTGGATGGGTTGA [3d674]"
target = "F1*sub RNA substrate (template-directed ligation)"
measured = 0.457

[[record]]
sequence_string = "TTCATTGTCGTAAGCACTTTGGATGGGTTGA [3d325]"
target = "F1*sub RNA substrate (template-directed ligation)"
measured = 0.176

[[record]]
sequence_string = "ATCACTTGTCGTAAAACTTTGGATGGGTTGA [3d211]"
target = "F1*sub RNA substrate (template-directed ligation)"
measured = 0.768

[[record]]
sequence_string = "TTCACTGTCGTAAGCACTTTGGATGGGTTGA [3d344]"
target = "F1*sub RNA substrate (template-directed ligation)"
measured = 0.8


In: Provide only the value of recorded fraction ligated for TTCACTTGTCGTAAACACTTTGATGGGTTGA [3d446]
Out: 0.0177

In: Check the records and state fraction ligated for TATCACTTTCGAAGACACTTTGGAGGGTTGA [3d1502]
Out: 0.0243

In: Return reported fraction ligated. Input sequence: TATCACGTCGAAGACACTTTGGATGGGTTGA [3d1297]
Out: 0.781

In: Look up and report measured fraction ligated for this entry: TATCACTGTCGTAAGACACTTGATGGGTTGA [3d1441]
Out: 0.77

In: For TTCATTGTCGTAAGACACTTTGGTGGGTTGA [3d331] , write its fraction ligated.
Out: 0.106

In: Assign fraction ligated to the following record: TATCACTTGTCGTAAACATTTGGATGGGTTG [3d2080]
Out: 0.826

In: Assign fraction ligated to the following record: TATCCTTGTCTAAGAACTTTGGATGGGTTGA [3d1019]
Out: 0.764

These data points were gathered from the supplement of paper PMC6755084.
